Measured total protein half-life in vivo, listed per entry.
assay: total protein half-life in vivo (active degradation + dilution); higher = more stable protein; conditions: wild type E. coli NCM3722; growth: P-lim chemostat; doubling time 6 h
READOUT: total protein half-life in vivo (h)

RESIDUE CODES	READOUT	UNIT SYMBOL	REPORTED MEASUREMENT
MLKKFRGMFSNDLSIDLGTANTLIYVKGQGIVLNEPSVVAIRQDRAGSPKSVAAVGHDAKQMLGRTPGNIAAIRPMKDGVIADFFVTEKMLQHFIKQVHSNSFMRPSPRVLVCVPVGATQVERRAIRESAQGAGAREVFLIEEPMAAAIGAGLPVSEATGSMVVDIGGGTTEVAVISLNGVVYSSSVRIGGDRFDEAIINYVRRNYGSLIGEATAERIKHEIGSAYPGDEVREIEVRGRNLAEGVPRGFTLNSNEILEALQEPLTGIVSAVMVALEQCPPELASDISERGMVLTGGGALLRNLDRLLMEETGIPVVVAEDPLTCVARGGGKALEMIDMHGGDLFSEE [P0A9X4]	total protein half-life in vivo	h	5.94
MKVLVTGATSGLGRNAVEFLCQKGISVRATGRNEAMGKLLEKMGAEFVPADLTELVSSQAKVMLAGIDTLWHCSSFTSPWGTQQAFDLANVRATRRLGEWAVAWGVRNFIHISSPSLYFDYHHHRDIKEDFRPHRFANEFARSKAASEEVINMLSQANPQTRFTILRPQSLFGPHDKVFIPRLAHMMHHYGSILLPHGGSALVDMTYYENAVHAMWLASQEACDKLPSGRVYNITNGEHRTLRSIVQKLIDELNIDCRIRSVPYPMLDMIARSMERLGRKSAKEPPLTHYGVSKLNFDFTLDITRAQEELGYQPVITLDEGIEKTAAWLRDHGKLPR	total protein half-life in vivo	h	5.6
MSDQQQPPVYKIALGIEYDGSKYYGWQRQNEVRSVQEKLEKALSQVANEPITVFCAGRTDAGVHGTGQVVHFETTALRKDAAWTLGVNANLPGDIAVRWVKTVPDDFHARFSATARRYRYIIYNHRLRPAVLSKGVTHFYEPLDAERMHRAAQCLLGENDFTSFRAVQCQSRTPWRNVMHINVTRHGPYVVVDIKANAFVHHMVRNIVGSLMEVGAHNQPESWIAELLAAKDRTLAAATAKAEGLYLVAVDYPDRYDLPKPPMGPLFLAD	total protein half-life in vivo	h	5.81
MFNSDNLRLDGKCAIITGAGAGIGKEIAITFATAGASVVVSDINADAANHVVDEIQQLGGQAFACRCDITSEQELSALADFAISKLGKVDILVNNAGGGGPKPFDMPMADFRRAYELNVFSFFHLSQLVAPEMEKNGGGVILTITSMAAENKNINMTSYASSKAAASHLVRNMAFDLGEKNIRVNGIAPGAILTDALKSVITPEIEQKMLQHTPIRRLGQPQDIANAALFLCSPAASWVSGQILTVSGGGVQELN [P0AET8]	total protein half-life in vivo	h	5.64
MKKRKTVKKRYVIALVIVIAGLITLWRILNAPVPTYQTLIVRPGDLQQSVLATGKLDALRKVDVGAQVSGQLKTLSVAIGDKVKKDQLLGVIDPEQAENQIKEVEATLMELRAQRQQAEAELKLARVTYSRQQRLAQTKAVSQQDLDTAATEMAVKQAQIGTIDAQIKRNQASLDTAKTNLDYTRIVAPMAGEVTQITTLQGQTVIAAQQAPNILTLADMSAMLVKAQVSEADVIHLKPGQKAWFTVLGDPLTRYEGQIKDVLPTPEKVNDAIFYYARFEVPNPNGLLRLDMTAQVHIQLTDVKNVLTIPLSALGDPVGDNRYKVKLLRNGETREREVTIGARNDTDVEIVKGLEAGDEVVIGEAKPGAAQ	total protein half-life in vivo	h	5.83
MTDNTYQPAKVWTWDKSAGGAFANINRPVSGPTHEKTLPVGKHPLQLYSLGTPNGQKVTIMLEELLALGVTGAEYDAWLIRIGDGDQFSSGFVEVNPNSKIPALRDHTHNPPIRVFESGSILLYLAEKFGYFLPQDLAKRTETMNWLFWLQGAAPFLGGGFGHFYHYAPVKIEYAINRFTMEAKRLLDVLDKQLAQHKFVAGDEYTIADMAIWPWFGNVVLGGVYDAAEFLDAGSYKHVQRWAKEVGERPAVKRGRIVNRTNGPLNEQLHERHDASDFETNTEDKRQG	total protein half-life in vivo	h	5.6
MRFYRPLGRISALTFDLDDTLYDNRPVILRTEREALTFVQNYHPALRSFQNEDLQRLRQAVREAEPEIYHDVTRWRFRSIEQAMLDAGLSAEEASAGAHAAMINFAKWRSRIDVPQQTHDTLKQLAKKWPLVAITNGNAQPELFGLGDYFEFVLRAGPHGRSKPFSDMYFLAAEKLNVPIGEILHVGDDLTTDVGGAIRSGMQACWIRPENGDLMQTWDSRLLPHLEISRLASLTSLI [P0ADP0]	total protein half-life in vivo	h	5.87
MPYKTKSDLPESVKHVLPSHAQDIYKEAFNSAWDQYKDKEDRRDDASREETAHKVAWAAVKHEYAKGDDDKWHKKS [P0AE63]	total protein half-life in vivo	h	4.41
MSNAQEAVKTRHKETSLIFPVLALVVLFLWGSSQTLPVVIAINLLALIGILSSAFSVVRHADVLAHRLGEPYGSLILSLSVVILEVSLISALMATGDAAPTLMRDTLYSIIMIVTGGLVGFSLLLGGRKFATQYMNLFGIKQYLIALFPLAIIVLVFPMALPAANFSTGQALLVALISAAMYGVFLLIQTKTHQSLFVYEHEDDSDDDDPHHGKPSAHSSLWHAIWLIIHLIAVIAVTKMNASSLETLLDSMNAPVAFTGFLVALLILSPEGLGALKAVLNNQVQRAMNLFFGSVLATISLTVPVVTLIAFMTGNELQFALGAPEMVVMVASLVLCHISFSTGRTNVLNGAAHLALFAAYLMTIFA	total protein half-life in vivo	h	6.87
MNEQSQAKSPEALRAMVAGTLANFQHPTLKHNLTTLKALHHVAWMDDTLHVELVMPFVWHSAFEELKEQCSAELLRITGAKAIDWKLSHNIATLKRVKNQPGINGVKNIIAVSSGKGGVGKSSTAVNLALALAAEGAKVGILDADIYGPSIPTMLGAENQRPTSPDGTHMAPIMSHGLATNSIGYLVTDDNAMVWRGPMASKALMQMLQETLWPDLDYLVLDMPPGTGDIQLTLAQNIPVTGAVVVTTPQDIALIDAKKGIVMFEKVEVPVLGIVENMSVHICSNCGHHEPIFGTGGAEKLAEKYHTQLLGQMPLHISLREDLDKGTPTVISRPESEFTAIYRQLADRVAAQLYWQGEVIPGEISFRAV [P0AF08]	total protein half-life in vivo	h	5.19

====

assay: total protein half-life in vivo (active degradation + dilution); higher = more stable protein; conditions: wild type E. coli NCM3722; growth: P-lim chemostat; doubling time 6 h
Measured total protein half-life in vivo, listed per entry.

RESIDUE CODES	total protein half-life in vivo
MRYPVDVYTGKIQAYPEGKPSAIAKIQVDGELMLTELGLEGDEQAEKKVHGGPDRALCHYPREHYLYWAREFPEQAELFVAPAFGENLSTDGLTESNVYMGDIFRWGEALIQVSQPRSPCYKLNYHFDISDIAQLMQNTGKVGWLYSVIAPGKVSADAPLELVSRVSDVTVQEAAAIAWHMPFDDDQYHRLLSAAGLSKSWTRTMQKRRLSGKIEDFSRRLWGK	5.64 h
MKIAILSRDGTLYSCKRLREAAIQRGHLVEILDPLSCYMNINPAASSIHYKGRKLPHFDAVIPRIGTAITFYGTAALRQFEMLGSYPLNESVAIARARDKLRSMQLLARQGIDLPVTGIAHSPDDTSDLIDMVGGAPLVVKLVEGTQGIGVVLAETRQAAESVIDAFRGLNAHILVQEYIKEAQGCDIRCLVVGDEVVAAIERRAKEGDFRSNLHRGGAASVASITPQEREIAIKAARTMALDVAGVDILRANRGPLVMEVNASPGLEGIEKTTGIDIAGKMIRWIERHATTEYCLKTGG [P0C0U4]	5.56 h
MYVAVKGGEKAIDAAHALQESRRRGDTDLPELSVAQIEQQLNLAVDRVMTEGGIADRELAALALKQASGDNVEAIFLLRAYRTTLAKLAVSEPLDTTGMRLERRISAVYKDIPGGQLLGPTYDYTHRLLDFTLLANGEAPTLTTADSEQQPSPHVFSLLARQGLAKFEEDSGAQPDDITRTPPVYPCSRSSRLQQLMRGDEGYLLALAYSTQRGYGRNHPFAGEIRSGYIDVSIVPEELGFAVNVGELLMTECEMVNGFIDPPGEPPHFTRGYGLVFGMSERKAMAMALVDRALQAPEYGEHATGPAQDEEFVLAHADNVEAAGFVSHLKLPHYVDFQAELELLKRLQQEQNHG	0.609 h

====

Measured total protein half-life in vivo, listed per entry.
test: total protein half-life in vivo (active degradation + dilution); higher = more stable protein; conditions: E. coli NCM3722 delta-smpB; growth: N-lim chemostat; doubling time 6 h

RESIDUE CODES	total protein half-life in vivo
MSKSRLTVFSFVRRFLLRLMVVLAVFWGGGIALFSVAPVPFSAVMVERQVSAWLHGNFRYVAHSDWVSMDQISPWMGLAVIAAEDQKFPEHWGFDVASIEKALAHNERNENRIRGASTISQQTAKNLFLWDGRSWVRKGLEAGLTLGIETVWSKKRILTVYLNIAEFGDGVFGVEAAAQRYFHKPASKLTRSEAALLAAVLPNPLRFKVSSPSGYVRSRQAWILRQMYQLGGEPFMQQHQLD	5.87 h
MYQVVASDLDGTLLSPDHTLSPYAKETLKLLTARGINFVFATGRHHVDVGQIRDNLEIKSYMITSNGARVHDLDGNLIFAHNLDRDIASDLFGVVNDNPDIITNVYRDDEWFMNRHRPEEMRFFKEAVFQYALYEPGLLEPEGVSKVFFTCDSHEQLLPLEQAINARWGDRVNVSFSTLTCLEVMAGGVSKGHALEAVAKKLGYSLKDCIAFGDGMNDAEMLSMAGKGCIMGSAHQRLKDLHPELEVIGTNADDAVPHYLRKLYLS	3.31 h
MSLTRLLIRDFRNIETADLALSPGFNFLVGANGSGKTSVLEAIYTLGHGRAFRSLQIGRVIRHEQEAFVLHGRLQGEERETAIGLTKDKQGDSKVRIDGTDGHKVAELAHLMPMQLITPEGFTLLNGGPKYRRAFLDWGCFHNEPGFFTAWSNLKRLLKQRNAALRQVTRYEQLRPWDKELIPLAEQISTWRAEYSAGIAADMADTCKQFLPEFSLTFSFQRGWEKETEYAEVLERNFERDRQLTYTAHGPHKADLRIRADGAPVEDTLSRGQLKLLMCALRLAQGEFLTRESGRRCLYLIDDFASELDDERRGLLASRLKATQSQVFVSAISAEHVIDMSDENSKMFTVEKGKITD [P0A7H0]	3.93 h
MSLSRTQIVNWLTRCGDIFSTESEYLTGLDREIGDADHGLNMNRGFSKVVEKLPAIADKDIGFILKNTGMTLLSSVGGASGPLFGTFFIRAAQATQARQSLTLEELYQMFRDGADGVISRGKAEPGDKTMCDVWVPVVESLRQSSEQNLSVPVALEAASSIAESAAQSTITMQARKGRASYLGERSIGHQDPGATSVMFMMQMLALAAKE	4.23 h
MAAINTKVKKAVIPVAGLGTRMLPATKAIPKEMLPLVDKPLIQYVVNECIAAGITEIVLVTHSSKNSIENHFDTSFELEAMLEKRVKRQLLDEVQSICPPHVTIMQVRQGLAKGLGHAVLCAHPVVGDEPVAVILPDVILDEYESDLSQDNLAEMIRRFDETGHSQIMVEPVADVTAYGVVDCKGVELAPGESVPMVGVVEKPKADVAPSNLAIVGRYVLSADIWPLLAKTPPGAGDEIQLTDAIDMLIEKETVEAYHMKGKSHDCGNKLGYMQAFVEYGIRHNTLGTEFKAWLEEEMGIKK [P0AEP3]	4.73 h

// provenance: the supplement of paper PMC11246515
